B1: HDV Ribozyme (parent)
chain: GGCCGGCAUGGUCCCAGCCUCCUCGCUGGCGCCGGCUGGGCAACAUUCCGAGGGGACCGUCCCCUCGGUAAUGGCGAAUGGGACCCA

# Variants of: B1
# Method: self-cleavage, relative activity (ratio to wild type); higher = more cleavage; co-transcriptional
Measured Metric: self-cleavage

Use these answered entries as a reference point.
{"Item Sequence": "CGCCGGCAUGGUCCCAGCCUCCUCGCUGGCGCCGGCUGGGCAACGUUCCGAGGGGACCGUCCCCUCGGUAAUGGCGAAUGGGACCCA [G1C A45G]", "self-cleavage": 0.192}
{"Item Sequence": "GGCCGGCAUGGUCCCAGCCUCCUCGCUGGCGCCGGCUCGGCAACAUUCCGAGGGGACCGUCCCCUCGGUAAUGGCGAAUGGAACCCA [G38C G82A]", "self-cleavage": 0.0594}
{"Item Sequence": "GGCCGGCAUGGUCCCAACCUCCUCGCAGGCGCCGGCUGGGCAACAUUCCGAGGGGACCGUCCCCUCGGUAAUGGCGAAUGGGACCCA [G17A U27A]", "self-cleavage": 0.609}
{"Item Sequence": "GGCCGGACUGGUCCCAGCCUCCUCGCUGGCGCCGGCUGGGCAACAUUCCGAGGGGACCGUCCCCUCGGUAAUGGCGAAUGGGACCCA [C7A A8C]", "self-cleavage": 0.65}
{"Item Sequence": "GUCCGGCAUGGUCCCAACCUCCUCGCUGGCGCCGGCUGGGCAACAUUCCGAGGGGACCGUCCCCUCGGUAAUGGCGAAUGGGACCCA [G2U G17A]", "self-cleavage": 0}

[ask] // returns reported self-cleavage for input GGCCGGCAUGGUCCCAGCCUCCUCGCUGACGCCGGCUGGGCAACAUUCCGAGGGGACCGUCCCCUCUGUAAUGGCGAAUGGGACCCA [G29A G67U]
[reply] 0.231

[ask] Endpoint output: self-cleavage of GGCCGGCAUGGUCCCAGCCUCCUCGCUGGCGCCGGCUGGGCAACAUCCCGAGGGGACCGUCACCUCGGUAAUGGCGAAUGGGACCCA [U47C C62A] . Value?
[reply] 1.06

[ask] Need self-cleavage of GGCCGGCAUGGUCCCAGCCUCCUCGCUGGCGCCGGCUGGGCAACAUUCCGAGGGGACCGUCCCCUCGGUAUGGGCGAAUGGGACCCA [A71U U72G] , thanks.
[reply] 0.684

[ask] Would you kindly share the measured self-cleavage for GGCCGGCAUGGUCCCAGCAUCCUCGCUGGCGCCGGCUGGGCAACAUUCCGAGGGGACCGUCCCCUCGGUAAUGGCGAAUGGUACCCA [C19A G82U] ?
[reply] 0.0898

[ask] Value lookup for self-cleavage; key = GGCCGGCAUGGUCCCAGCCUCCUCGCUUGCGCCGGGUGGGCAACAUUCCGAGGGGACCGUCCCCUCGGUAAUGGCGAAUGGGACCCA [G28U C36G]
[reply] 0.0665

[ask] What does the record list as self-cleavage for GGCCGGCAUGGUCCCAGCCUCCUCGCUGGCGCCGGCUGGGCAACAUUCCGAGGAGACCGUCCCCUCGAUAAUGGCGAAUGGGACCCA [G54A G68A] ?
[reply] 0.895

[ask] Consider the variant shown here: GGCCGGCAUUGUCCCAGCCUCCUCUCUGGCGCCGGCUGGGCAACAUUCCGAGGGGACCGUCCCCUCGGUAAUGGCGAAUGGGACCCA [G10U G25U] What is its recorded self-cleavage?
[reply] 0.125

[ask] So what's the measured self-cleavage for this one? GGCCGGGAUGGUCCCAGCCUCCUCGCUGGCGCCGGCUGGGCAACAUUCCGAGGGGACCGUCCCCUCGGUAAUGGUGAAUGGGACCCA [C7G C75U]
[reply] 0

[ask] Consider the variant shown here: GGUCGGCAUGGUCCCAGCCUCCUCGCUGGCGCCGGCUGGGCAACAUUCCGAGGGGACCGUCCCCUCGGUCAUGGCGAAUGGGACCCA [C3U A70C] What is its recorded self-cleavage?
[reply] 0.566
